The origin of these recorded values is the RNAGym collection of RNA variant scans (doi:10.7554/elife.80360).

B1: CPEB3 Ribozyme (parent)
chain: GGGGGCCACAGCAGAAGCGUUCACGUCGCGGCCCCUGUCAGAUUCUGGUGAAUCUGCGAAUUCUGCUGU

# Variants of: B1
# METHOD SUMMARY: self-cleavage, relative activity (ratio to wild type); higher = more cleavage; co-transcriptional
MEASURE NAME: self-cleavage
Returns: the value as a bare number; no unit string appended.

INSERT INTO results (change, measure_name, recorded_number) VALUES
  ('A13U U61C', 'self-cleavage', 0.32),
  ('C39A U46C', 'self-cleavage', 0.808),
  ('C12G C34U', 'self-cleavage', 0.89),
  ('G4C G41C', 'self-cleavage', 0.146),
  ('A59G C66A', 'self-cleavage', 0.779),
  ('A42C U69A', 'self-cleavage', 1.02),
  ('C22U G25U', 'self-cleavage', 0.153),
  ('C6A U67C', 'self-cleavage', 0.883),
  ('A42C G68U', 'self-cleavage', 1.01),
  ('A13G U38C', 'self-cleavage', 0.938);

Summary for this variant, U20G U38C : self-cleavage is 0.185
